Recorded internalized pHrodo-tau in B103 cells (FACS), antibody at 62.5 µg/mL (% of maximum signal) for the following binders
molecular target: pHrodo-labeled tau P301L soluble oligomer, P10636; assay: cell-based or functional assay
Sequence (P10636 other isoform, or with tags, fused parts or gaps P301L P301L): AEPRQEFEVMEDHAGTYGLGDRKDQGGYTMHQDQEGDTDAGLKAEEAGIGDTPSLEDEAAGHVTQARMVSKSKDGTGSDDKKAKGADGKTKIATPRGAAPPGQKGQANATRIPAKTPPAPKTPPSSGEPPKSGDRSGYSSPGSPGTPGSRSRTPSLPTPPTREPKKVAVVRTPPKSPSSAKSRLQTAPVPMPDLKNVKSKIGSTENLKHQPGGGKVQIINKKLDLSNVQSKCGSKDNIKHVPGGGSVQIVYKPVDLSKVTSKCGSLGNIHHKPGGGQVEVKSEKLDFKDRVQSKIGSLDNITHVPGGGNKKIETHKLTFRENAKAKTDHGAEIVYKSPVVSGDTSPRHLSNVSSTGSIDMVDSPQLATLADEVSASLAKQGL
# print the numeric value only

- BINDER: "mouse 2D11 antibody (antibody, mouse IgG2a, V domains shown, here or on the partner: pHrodo label) VH: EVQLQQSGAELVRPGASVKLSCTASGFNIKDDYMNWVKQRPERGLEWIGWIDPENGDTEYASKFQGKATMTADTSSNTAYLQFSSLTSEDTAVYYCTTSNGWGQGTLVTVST VL: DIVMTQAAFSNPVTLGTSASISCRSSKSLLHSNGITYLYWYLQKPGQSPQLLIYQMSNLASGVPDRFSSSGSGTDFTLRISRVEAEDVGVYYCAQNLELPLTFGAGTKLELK"
  TEST_RESULT: 28.4
- BINDER: "mouse 9F5 antibody (antibody, mouse IgG1, V domains shown, here or on the partner: pHrodo label) VH: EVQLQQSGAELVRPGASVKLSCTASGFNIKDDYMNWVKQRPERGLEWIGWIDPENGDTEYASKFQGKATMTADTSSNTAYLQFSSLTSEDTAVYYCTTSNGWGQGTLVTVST VL: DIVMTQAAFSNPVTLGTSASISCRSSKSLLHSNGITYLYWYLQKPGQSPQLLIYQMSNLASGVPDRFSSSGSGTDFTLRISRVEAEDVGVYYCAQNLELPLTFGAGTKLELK"
  TEST_RESULT: 18.1

Now for another entry.
I am curious: what internalized pHrodo-tau in B103 cells (FACS), antibody at 62.5 µg/mL (% of maximum signal) value has been reported for mouse 12C4 antibody (antibody, mouse IgG2a, V domains shown, here or on the partner: pHrodo label) VH: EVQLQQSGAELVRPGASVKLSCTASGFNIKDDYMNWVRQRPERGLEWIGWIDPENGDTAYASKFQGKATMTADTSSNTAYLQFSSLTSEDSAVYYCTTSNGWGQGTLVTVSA VL: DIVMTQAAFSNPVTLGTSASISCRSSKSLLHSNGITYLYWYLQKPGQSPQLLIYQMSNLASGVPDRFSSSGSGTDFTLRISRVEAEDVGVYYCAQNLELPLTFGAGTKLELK ?
37.3
